- Tested on: HCI01 (cells of a triple-negative basal-like breast cancer xenograft)
- Protocol details: cell viability (% of vehicle); higher = less cytotoxic;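 note: PDX cells carrying CMV promoter-driven luciferase, viability read as total photon flux per second by IVIS imaging following D-luciferin, vehicle control 0.1% DMSO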
- Test settings: 10 µM; 72 h
Threshold 100: cell viability strictly smaller gives MET, otherwise NOT MET.

Compound | Group
CC(=O)OC12COC1CC(O)C1(C)C(=O)C(O)C3=C(C)C(OC(=O)C(O)C(NC(=O)OC(C)(C)C)c4ccccc4)CC(O)(C(OC(=O)c4ccccc4)C21)C3(C)C.O.O.O (centres undefined) [Docetaxel Trihydrate] | NOT MET
CN1CCCC[C@H]1CCN1c2ccccc2Sc2ccc(S(C)=O)cc21.O=S(=O)(O)c1ccccc1 (some centres undefined) [Mesoridazine Besylate] | NOT MET
Cc1ccc(Cl)c(Nc2ccccc2C(=O)[O-])c1Cl.[Na+] [Meclofenamate Sodium] | NOT MET
C[N+](C)(C)CCO.[Cl-] [Choline Chloride] | NOT MET
O=C([O-])C(O)C(O)C(O)C(O)C(O)CO.O=C([O-])C(O)C(O)C(O)C(O)C(O)CO.[Ca+2] (centres undefined) [Calcium Gluceptate] | NOT MET

Shift focus to the following entry.
Query string: In plain terms, does CC(C)CC(NC(=O)CNC(=O)c1cc(Cl)ccc1Cl)B(O)O (centres undefined) come in under 100 for cell viability?
Result string: MET

* * *

- Test system: WHIM30 (cells of a triple-negative basal-like breast cancer xenograft)
- Protocol details: cell viability (% of vehicle); higher = less cytotoxic
- Test settings: 10 µM; 72 h
Readout label: cell viability

Molecule | cell viability
Cl.N=C(N)N [Guanidine HCl] | 135

The following molecules each have a reported value; give each one's cell viability.
1. CC(=O)[N-]S(=O)(=O)c1ccc(N)cc1.[Na+] [Sulfacetamide Sodium]
2. COc1cc2c(cc1OC)CC(=O)N(CCCN(C)CC1Cc3cc(OC)c(OC)cc31)CC2.Cl (stereo unspecified) [Ivabradine HCl]
3. COc1ccc(O)cc1 [Mequinol]
4. CC12CC3CC(C)(C1)CC(N)(C3)C2.Cl [Memantine hydrochloride]
5. COC(=O)NC(C(=O)NC(Cc1ccccc1)C(O)CN(Cc1ccc(-c2ccccn2)cc1)NC(=O)C(NC(=O)OC)C(C)(C)C)C(C)(C)C (stereo unspecified) [Atazanavir]

Result string:
1. 109
2. 123
3. 100
4. 156
5. 82.1

* * *

- System: HCI11 (cells of an ER-positive luminal breast cancer xenograft)
- Protocol details: cell viability (% of vehicle); higher = less cytotoxic
- Test settings: 10 µM; 72 h
Please respond with reported cell viability for every item in the list.
Give bare numbers.

Below, 3 compounds whose answers are already recorded.
Compound | cell viability
O=C(O)CCNC(=O)c1ccc(/N=N/c2ccc(O)c(C(=O)O)c2)cc1 [Balsalazide] | 91.1
CC(=O)N1CCN(c2ccc(OCC3COC(Cn4ccnc4)(c4ccc(Cl)cc4Cl)O3)cc2)CC1 (single isomer, unassigned; (+)) [(+)-Ketoconazole] | 87.9
CN(C)CCN1C(=O)c2cccc3cc(N)cc(c23)C1=O [Amonafide] | 90.4

The following compounds each have a reported value; give each one's cell viability.
1. CC[N+](CC)(CC)CCOc1cccc(OCC[N+](CC)(CC)CC)c1OCC[N+](CC)(CC)CC.[I-].[I-].[I-] [Gallamine Triethiodide]
2. CN(C)CC(c1ccc(O)cc1)C1(O)CCCCC1.O.O=C(O)CCC(=O)O (stereo not given) [Desvenlafaxine Succinate]

Result string:
1. 88.1
2. 92.6

* * *

- System: HCI09 (cells of a triple-negative luminal androgen receptor type breast cancer xenograft)
- Protocol details: cell viability (% of vehicle); higher = less cytotoxic
- Test settings: 10 µM; 72 h
Readout label: cell viability

Below, 3 compounds whose answers are already recorded.
Compound | cell viability
N[C@@H](CCC(=O)N[C@@H](CS)C(=O)NCC(=O)O)C(=O)O | 107
CC(CCC(=O)O)C1CCC2C3CCC4CC(O)CCC4(C)C3CC(O)C12C (centres undefined) | 107
COc1ccc(Cl)cc1C(=O)NCCc1ccc(S(=O)(=O)NC(=O)NC2CCCCC2)cc1 [Glibenclamide] | 93.7

Please look at the following compound next.
Query string: Give the reported value of cell viability for this record: Clc1ccc(COC(Cn2ccnc2)c2ccc(Cl)cc2Cl)c(Cl)c1.O=[N+]([O-])O (centres undefined) [Miconazole Nitrate]
Result string: 27.3

* * *

- Tested on: WHIM2 (cells of a triple-negative basal-like breast cancer xenograft)
- Protocol details: cell viability (% of vehicle); higher = less cytotoxic
- Test settings: 10 µM; 72 h
Readout label: cell viability
Numbers only.

Molecule | Quantitative readout
CCCNC(C)C(=O)Nc1ccccc1C.Cl (stereo not given) [Prilocaine hydrochloride] | 102
NCC1OC(OC2C(N)CC(N)C(OC3OC(CO)C(O)C(N)C3O)C2O)C(O)C(O)C1O.O=S(=O)(O)O (stereo not given) [Kanamycin Sulfate] | 80.1

The following molecules each have a reported value; give each one's cell viability.
1. C[N+](C)(C)CC(=O)[O-]
2. Cc1ccc(C)c(OCCCC(C)(C)C(=O)O)c1
3. Clc1ccc2nsnc2c1NC1=NCCN1
4. NC(=O)c1ncn(C2OC(CO)C(O)C2O)c1O (stereo not given)

Result string:
[99.7, 98.3, 82.1, 97]

The following molecules each have a reported value; give each one's cell viability.
1. CC(OC1OCCN(Cc2nc(=O)n(P(=O)(O)O)[nH]2)C1c1ccc(F)cc1)c1cc(C(F)(F)F)cc(C(F)(F)F)c1.CNCC(O)C(O)C(O)C(O)CO.CNCC(O)C(O)C(O)C(O)CO (stereo not given) [Fosaprepitant dimeglumine salt]
2. CCN(CC)CCOC(=O)c1ccc(N)cc1
3. CCN(CC)CC#CCOC(=O)C(O)(c1ccccc1)C1CCCCC1 (stereo not given)
4. CNC(=O)c1ccc(N2C(=S)N(c3ccc(C#N)c(C(F)(F)F)c3)C(=O)C2(C)C)cc1F [MDV3100 (Enzalutamide)]

Result string:
1. 79.7
2. 97.3
3. 97.1
4. 97.9

* * *

- Tested on: WHIM2
- Protocol details: cell viability (% of vehicle); higher = less cytotoxic
- Test settings: 10 µM; 72 h
Threshold 100: cell viability strictly smaller gives True, otherwise False.

The examples below pair each entry with its known result.
Compound | Group
CCNC1CC(N)C(OC2OC(CN)=CCC2N)C(O)C1OC1OCC(C)(O)C(NC)C1O.CCNC1CC(N)C(OC2OC(CN)=CCC2N)C(O)C1OC1OCC(C)(O)C(NC)C1O.O=S(=O)(O)O.O=S(=O)(O)O.O=S(=O)(O)O.O=S(=O)(O)O.O=S(=O)(O)O (stereo not given) [Netilmicin Sulfate] | False
Nc1nc(=O)c2ncn(CCC(CO)CO)c2[nH]1 | False
O=c1cc[nH]c(=O)[nH]1 | False
CC[C@]1(O)C[C@H]2CN(CCc3c([nH]c4ccccc34)[C@@](C(=O)OC)(c3cc4c(cc3OC)N(C=O)[C@H]3[C@@](O)(C(=O)OC)C(OC(C)=O)[C@]5(CC)C=CCN6CC[C@]43C65)C2)C1.O=S(=O)(O)O (stereo not given in full) | True

Query string: In plain terms, does CC(C)(C)NCC(O)COc1cccc2c1CCC(O)=N2.Cl (stereo not given) [Carteolol HCl] come in under 100 for cell viability?
Result string: True

Query string: In plain terms, does CC(=O)OCC(=O)C1(O)C(C)CC2C3CCC4=CC(=O)C=CC4(C)C3(F)C(O)CC21C (stereo not given) [Dexamethasone acetate] come in under 100 for cell viability?
Result string: False

Query string: In plain terms, does CC(=O)O.NC(N)=NN=Cc1c(Cl)cccc1Cl [Guanabenz Acetate] come in under 100 for cell viability?
Result string: False

* * *

Please respond with reported cell viability for every item in the list.
- Tested on: HCI01
- Protocol details: cell viability (% of vehicle); higher = less cytotoxic
- Test settings: 10 µM; 72 h
One number for each entry.

Below, 4 compounds whose answers are already recorded.
Compound | Quantitative readout
COc1cc(C=CC(=O)N2CCN(CC(=O)N3CCCC3)CC2)cc(OC)c1OC.O=C(O)C=CC(=O)O [Cinepazide maleate] | 90.6
COc1cc(Nc2ncc(F)c(Nc3ccc4c(n3)N(COP(=O)(O)O)C(=O)C(C)(C)O4)n2)cc(OC)c1OC [Fostamatinib (R788)] | 88.3
Cc1cccc(C)c1OCC(C)N.Cl (stereo not given) [Mexiletine HCl] | 127
O=C1Nc2ccc(Cl)cc2C(C#CC2CC2)(C(F)(F)F)O1 (stereo not given) | 114

Please look at the following compound next.
Query string: Specify cell viability for C#CC1(O)CCC2C3CCc4cc(O)ccc4C3CCC21C (stereo not given) , system HCI01.
Result string: 107

* * *

- System: HCI03 (cells of an ER-positive luminal breast cancer xenograft)
- Protocol details: cell viability (% of vehicle); higher = less cytotoxic
- Test settings: 10 µM; 72 h
Readout label: cell viability
Answers are plain numbers.

Compound | Readout label | Quantitative readout
C#CCC(Cc1cnc2nc(N)nc(N)c2n1)c1ccc(C(=O)NC(CCC(=O)O)C(=O)O)cc1 (centres undefined) [Pralatrexate] | cell viability | 117

The following compounds each have a reported value; give each one's cell viability.
1. CC(O)C1C(=O)N2C(C(=O)O)=C(SC3CNC(CNS(N)(=O)=O)C3)C(C)C12 (centres undefined) [Doripenem]
2. O=c1ccc2ccc(OCCCCN3CCN(c4cccc5sccc45)CC3)cc2[nH]1 [Brexpiprazole]

Result string:
1: 103; 2: 106

Query string: Give the reported value of cell viability for this record: CC(C)(C)NC(=O)C1CCC2C3CCC4NC(=O)C=CC4(C)C3CCC12C (centres undefined) [Finasteride]
Result string: 115

The reported measurements were obtained from the supplement of paper PMC6992640.
